Kindly state LD50 for each of the entries shown.
test-description: acute toxicity by oral administration (LD50), rats
assay-conditions: rat, in vivo, male rats, read-out: LD50 for rats (male)
One number for each entry, in mg/kg.

compound="COc1ccc([N+](=O)[O-])cc1O [Sodium 5-nitroguaiacol, sodium 5-nitroguaiacol]" value_measured=3100

Could you tell me LD50 for each of these compounds? They are listed below.
1. O=[N+]([O-])c1ccc(O)cc1.[Na] [Sodium p-nitrophenol, sodium p-nitrophenol]
2. O=[N+]([O-])c1ccccc1O.[Na] [Sodium o-nitrophenol, sodium o-nitrophenol]

A.
1250
2050
